In this section, each of the compounds is paired with its reported IC50.
Biological target: Avi-KRAS G12D (1-169) GppNHp/RAF1 RBD-3×FLAG (52-151) (Homo sapiens, UniProt P01116, G12D)
Construct: Avi-KRAS G12D (1-169) GppNHp
Sequence (P01116 1-169 isoform P01116-2 G12D limits assumed): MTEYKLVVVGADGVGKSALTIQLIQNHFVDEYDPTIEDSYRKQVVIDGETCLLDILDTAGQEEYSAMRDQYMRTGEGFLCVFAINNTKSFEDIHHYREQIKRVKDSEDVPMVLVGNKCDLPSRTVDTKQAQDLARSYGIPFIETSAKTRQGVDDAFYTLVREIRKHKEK
Assay: HTRF Raf1-KRAS G12D-GppNHp disruption assay
Conditions: 1 h incubation

The following compounds have reported results that may help.
• CN1CCC[C@H]1COc1nc(NCCN)c2cnc(-c3ccc(F)c4sc(N)nc34)c(F)c2n1 [Compound 81] = 10 to 30 µM
• Fc1c(-c2cc(C(F)F)cc3ccccc23)c(C(F)(F)F)cc2c(N3CC4CCC(C3)N4)nc(OCC34CCCN3CCC4)nc12 [Compound 331] = 10 to 30 µM
• CN1CCC[C@H]1COc1nc(N2CC3CNCC3C2)c2cc(Cl)c(-c3ccc(F)c4sc(N)nc34)c(F)c2n1 (stereo partly shown) [Compound 71] = 10 to 30 µM
• CN1CCC[C@H]1COc1nc(N2CC(N)C2)c2cc(Cl)c(-c3ccc(F)c4sc(N)nc34)c(F)c2n1 [Compound 112] = 1 to 10 µM
• CO[C@@H]1C[C@@H](COc2nc(NC3CNC3)c3cc(Cl)c(-c4ccc(F)c5sc(N)nc45)c(F)c3n2)N(C)C1 [Compound 73] = 1 to 10 µM
• Nc1nc2c(-c3c(C(F)(F)F)cc4c(N5CC6CCC(C5)N6)nc(OCC56CCCN5CCC6)nc4c3F)ccc(F)c2s1 [Compound 158] = 0.1 to 1 µM

Lab note: next compound to report on.
IC50 reported for this compound C[C@@H]1CN(c2nc(OC[C@]34CCCN3C[C@H](F)C4)nc3c(F)c(-c4ccc(F)c5sc(N)nc45)c(C(F)(F)F)cc23)C[C@H](C)N1 [Compound 215] : 1 to 10 µM

The origin of these recorded values is patent US20240246954A1.
